The reported numbers originate from the supplement of paper PMC10567573.

B1: TPD52L2 (parent)
chain: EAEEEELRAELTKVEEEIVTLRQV

variants of: B1; assay: protein stability index of a GFP-peptide fusion (GPS, HEK-293T) (PSI 1-6); higher = more stable; details: c terminus: a fixed tail appended;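 note: lentivirally expressed fusions sorted by FACS into six bins by GFP to DsRed ratio, PSI derived from sequencing read proportions per bin multiplied by bin number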
This section presents variants with their documented protein stability index values.
property label: protein stability index

[[record]]
seq = "EYEEEELRAELTKVEEEIVTLRQV [A2Y]"
value_observed = 3.1

[[record]]
seq = "EAEEEELRAELTCVEEEIVTLRQV [K13C]"
value_observed = 5.11

[[record]]
seq = "EAEEEELRAELTKVEEEMVTLRQV [I18M]"
value_observed = 5.11

[[record]]
seq = "EAEEEELRAQLTKVEEEIVTLRQV [E10Q]"
value_observed = 3.98

[[record]]
seq = "EAEEEELRAELTKKEEEIVTLRQV [V14K]"
value_observed = 5.72

[[record]]
seq = "EAEKEELRAELTKVEEEIVTLRQV [E4K]"
value_observed = 4.13

[[record]]
seq = "EAEEEELRAELTKVEEEIYTLRQV [V19Y]"
value_observed = 3.71

[[record]]
seq = "EEEEEELRAELTKVEEEIVTLRQV [A2E]"
value_observed = 4.6

